TESTED_SYSTEM: T1, human GLP-1 receptor (human, UniProt P43220 24-463)
T1 construct: whole, on cells
ASSAY: competitive binding (SPA): displacement of 125I-GLP-1(7-36)NH2 from BHK cell membranes with human GLP-1 receptor; high HSA (2.0% final)
Numbered stars: 1 amine (or outer) side, 2 acyl side, 3 side chain; on linkers, the order of the positions; unused ones are H or OH. Square brackets hold non-standard residues; d marks the D form. Side chains are listed from the residue outwards. Ends that are not written are not given here. * marks the point of attachment. TtdSuc = 4-[3-[2-[2-(3-aminopropoxy)ethoxy]ethoxy]propylamino]-4-oxobutanoyl; C20 diacid = O=C(O)CCCCCCCCCCCCCCCCCCC(=O)*; C19 diacid = O=C(O)CCCCCCCCCCCCCCCCCC(=O)*; γGlu = O=C(O)[C@H](CCC(=O)[*:2])N[*:1]; εLys = N[C@@H](CCCCN[*:1])C(=O)[*:2]; Trx = NC[C@H]1CC[C@H](C(=O)O)CC1; AEEA = NCCOCCOCC(=O)O; Aib = CC(C)(N)C(=O)O; Inp = O=C(O)C1CCNCC1
Reported values of IC50 for individual entries
The response must be a number in nM with no trailing unit.

H[Aib]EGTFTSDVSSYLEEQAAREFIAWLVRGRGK([AEEA-AEEA-AEEA-AEEA-AEEA-εLys-εLys-C20 diacid])GGSK([AEEA-AEEA-AEEA-AEEA-AEEA-εLys-εLys-C20 diacid]) (Double-acylated, C-terminally extended GLP-1 analogue made by SPPS; also called 27) = 30

// query Identify measured IC50 corresponding to H[Aib]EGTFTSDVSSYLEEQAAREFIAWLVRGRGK([AEEA-AEEA-γGlu-Trx-C20 diacid])PEGK([AEEA-AEEA-γGlu-Trx-C20 diacid]) (Double-acylated, C-terminally extended GLP-1 analogue made by SPPS; also called 12)
// result 212

// query Identify measured IC50 corresponding to H[Aib]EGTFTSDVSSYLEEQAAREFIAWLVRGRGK([TtdSuc-γGlu-Inp-C20 diacid])GGSK([TtdSuc-γGlu-Inp-C20 diacid]) (Double-acylated, C-terminally extended GLP-1 analogue made by SPPS; also called 21)
// result 177

// query Identify measured IC50 corresponding to H[Aib]EGTFTSDVSSYLEEQAARKFIAWLVRGRGGGGSK (not fully specified (residues 21, 36), Double-acylated, C-terminally extended GLP-1 analogue made by SPPS; The printed name has a typographic slip ('R2S)' for '[(2S)'))
// result 383

// query Identify measured IC50 corresponding to H[Aib]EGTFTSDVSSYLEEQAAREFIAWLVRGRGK([AEEA-AEEA-γGlu-Trx-C19 diacid])GGSK([AEEA-AEEA-γGlu-Trx-C19 diacid]) (Double-acylated, C-terminally extended GLP-1 analogue made by SPPS; also called 26)
// result 202

// query Identify measured IC50 corresponding to H[Aib]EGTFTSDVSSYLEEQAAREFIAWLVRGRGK([AEEA-AEEA-AEEA-AEEA-AEEA-AEEA-γGlu-Trx-C20 diacid])GGSK([AEEA-AEEA-AEEA-AEEA-AEEA-AEEA-γGlu-Trx-C20 diacid]) (Double-acylated, C-terminally extended GLP-1 analogue made by SPPS; also called 24)
// result 84

// query Identify measured IC50 corresponding to H[Aib]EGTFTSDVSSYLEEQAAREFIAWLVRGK([AEEA-AEEA-γGlu-Trx-C20 diacid])GGGGSK([AEEA-AEEA-γGlu-Trx-C20 diacid]) (Double-acylated, C-terminally extended GLP-1 analogue made by SPPS)
// result 101

// query Identify measured IC50 corresponding to H[Aib]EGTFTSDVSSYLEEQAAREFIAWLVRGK([AEEA-AEEA-γGlu-Trx-C20 diacid])GPASEK([AEEA-AEEA-γGlu-Trx-C20 diacid]) (Double-acylated, C-terminally extended GLP-1 analogue made by SPPS; also called 15)
// result 928
